These data points were gathered from ChEMBL document CHEMBL4513216.

Hi there, I'd appreciate the recorded cytotoxicity at 10 µM for every entry that follows.
- test-description: Toxicity liver stage against HepG2, at 10uM
- Format: cell-based
- Set-up: test concentration 10 uM, cell line HepG2-A16-CD81EGFP
- measurement-parameters: human, HepG2-A16-CD81EGFP cells; read-out: INHIBITION
Numbers only, in %.

Past entries and their recorded results:
Consider CC(=O)N1CCCC1c1nnn2cc(Nc3ccccc3)ccc12 (stereo not drawn) . Its measured cytotoxicity at 10 µM is 12.2

Consider CCc1c(C(=O)N2C[C@@H]3CC[C@H]2CN(c2cnccn2)C3)csc1C . Its measured cytotoxicity at 10 µM is 13.3

Consider CC(C)N1CCC(CNCc2c[nH]nc2C(C)(C)C)C1 (stereo not drawn) . Its measured cytotoxicity at 10 µM is -2.16

List reported cytotoxicity at 10 µM for each of these molecules:
1. COc1cccc2c1OCC(C(=O)NCCc1nnc(N)s1)C2 (stereo not drawn)
2. COc1ccc(-n2ccc(C(=O)NCCN3CCCCC3C)n2)cc1 (stereo not drawn)
3. Cc1nc(C2CCN(C(C)C)CC2)sc1Br
4. O=C(NCc1cccnc1)[C@H]1C[C@@H]2CCN(c3ccncn3)C[C@H]2O1
5. CC(=O)c1ccc(-c2cc(C(F)(F)F)cc(N(C)C)n2)cc1
6. CC(=O)NCC(=O)N1CCN(Cc2ccncc2)c2ncccc2C1
7. N#Cc1cccc(C(=O)N2C[C@@H]3CC[C@H]2CN(C(=O)C2CCC2)C3)c1

1: -33.4; 2: -8.43; 3: -3.02; 4: 7.95; 5: 4.02; 6: -90.3; 7: -2.5

###

- test-description: Toxicity liver stage against HepG2, at 10uM
- Assay type: cell-based
- Design: test concentration 10 uM, cell line HepG2-A16-CD81EGFP
- measurement-parameters: human, HepG2-A16-CD81EGFP cells; read-out: INHIBITION
Hi there, I'd appreciate the recorded cytotoxicity at 10 µM for every entry that follows.
Numbers only, in %.

Consider COCC(=O)N1CCC2(CC1)CC(OC)CO2 (centres undefined) . Its measured cytotoxicity at 10 µM is -1.56

Consider O=C1CC[C@@H]2[C@@H](CCN2S(=O)(=O)C2CC2)N1CC1CC1 . Its measured cytotoxicity at 10 µM is -79.4

Consider NC(=O)C1CCN(C(=O)Cc2ccc(Cl)c(Cl)c2)CC1 . Its measured cytotoxicity at 10 µM is 5.82

Consider Cc1cccc(-c2noc([C@@H]3C[C@@H](O)CN3Cc3ccc(CO)o3)n2)c1 . Its measured cytotoxicity at 10 µM is 7.38

Consider Cn1cccc1C(=O)NCc1cn2c(n1)CN(Cc1ccccn1)CC2 . Its measured cytotoxicity at 10 µM is -115

Consider c1cnc(N2CCO[C@H]3[C@H](OCC4CCOCC4)CC[C@@H]32)nc1 . Its measured cytotoxicity at 10 µM is 4.55

Consider COc1ccc(S(=O)(=O)N[C@H]2CN(C(C)=O)C[C@@H]2C(C)C)cc1F . Its measured cytotoxicity at 10 µM is -0.277

Consider CN(Cc1ccc(-n2cccn2)cc1)c1cc(N)nc(N)n1 . Its measured cytotoxicity at 10 µM is 86.7

List reported cytotoxicity at 10 µM for each of these compounds:
1. CC(C)n1cc(CN2CCCN(C(=O)c3ccoc3)CC2)cn1
2. O=C1NCCCCC1NCc1csc(-c2ccsc2)n1 (centres undefined)
3. CCC1COCCN1C(=O)CNC(=O)c1ccoc1C (centres undefined)

1: -3.44; 2: 3.27; 3: -7.51

List reported cytotoxicity at 10 µM for each of these compounds:
1. COc1cccc2c1OCC(NCc1cnn(-c3ccccc3F)c1)C2 (centres undefined)
2. Cc1ccnc(NCCNC(=O)CCNC(=O)c2ccccc2F)c1
3. CCc1cc(C(=O)N2CCCC2c2nc(C)c(F)c(O)n2)on1 (centres undefined)
4. Cc1cccc(-c2noc(C)c2C(=O)NC2CCCOC2)c1 (centres undefined)
5. COc1ccccc1OC1CCN(C(=O)c2cnc(C)s2)CC1
6. CCSc1nnc(N2CCN(c3ccccc3)CC2)s1
7. CNC(=O)CN1CCOCC2(CCCN(CCc3ccccc3)C2)C1 (centres undefined)
8. O=C(c1cc2c(s1)CCC2)N1CCCCC1Cn1cccn1 (centres undefined)

1: 1.68; 2: 1.5; 3: 0.626; 4: 5.2; 5: -19.2; 6: -6.67; 7: 0.0221; 8: -4.86

List reported cytotoxicity at 10 µM for each of these compounds:
1. CCCSc1ccccc1NC(=O)N1CCC(N2CCSCC2)CC1
2. COc1ccc(C(=O)C2CCCN(c3cnccn3)C2)c(C)c1 (centres undefined)

-4.73
-2.69

List reported cytotoxicity at 10 µM for each of these compounds:
1. CCc1nc(CN2CCN(C(=O)c3cc(C)nn3C)CC2)cs1
2. CN(C)c1ncccc1CNC(=O)NCC(c1cccs1)N(C)C (centres undefined)
3. CN(CC(N)=O)C(=O)CCCn1ccc2cc(Cl)ccc21

1: 3.83; 2: 11.6; 3: -2.13

###

Hi there, I'd appreciate the recorded cytotoxicity at 10 µM for every entry that follows.
- test-description: Toxicity liver stage against HepG2, at 10uM
- Format: cell-based
- Set-up: test concentration 10 uM, cell line HepG2-A16-CD81EGFP
- measurement-parameters: human, HepG2-A16-CD81EGFP cells; read-out: INHIBITION
Give bare numbers, in %.

Past entries and their recorded results:
Consider CC(=O)NCc1nc(Cc2cccc(Cl)c2)nn1C1CCN(C)CC1 . Its measured cytotoxicity at 10 µM is -1.12

Consider CN(CCOCC1CC1)C(=O)Cn1cccc(C(F)(F)F)c1=O . Its measured cytotoxicity at 10 µM is -6.96

Consider COCCn1ccc2cc(NC(=O)COC)ccc21 . Its measured cytotoxicity at 10 µM is 0.82

List reported cytotoxicity at 10 µM for each of these molecules:
1. O=C(N[C@]12CC1CN(C(=O)c1ccco1)C2)c1ccco1 (some centres undefined)
2. O=C(c1cccnc1)N1CCSCC1
3. O=C(c1ccc(O)nc1)N1CCc2ccc(O)cc2C1
4. O=C1CC(c2ccccc2)c2c(c(C(=O)O)cn2-c2ccccc2)N1 (centres undefined)
5. Cn1cc(N2CCC(NC(=O)c3c(F)cccc3F)C2=O)cn1 (centres undefined)
6. Cc1nc(C)n(CC2CCCN(Cc3ncc(C(C)(C)C)o3)C2)n1 (centres undefined)

[-0.479, -15.1, -8.77, -0.0616, 2.5, -5.95]

List reported cytotoxicity at 10 µM for each of these molecules:
1. CCC1=N[C@@]2(CC[C@@H]3CN(Cc4ccccc4F)C[C@@H]32)C(=O)N1CC
2. CC(=O)NCCCC(=O)NC(C)c1nnc2n1CCC2 (centres undefined)
3. CN1CC(=O)N(c2ccccc2)CC12CCN(CCO)C2 (centres undefined)
4. CC(=O)N[C@@H]1Cc2ccccc2[C@H]1Nc1ccncn1
5. Cc1n[nH]c(C2CN(CC(=O)NCc3cccs3)CCO2)n1 (centres undefined)
6. Cn1cccc1C(=O)NC1CCN(c2ccc(OC(F)(F)F)cc2)CC1
7. CCc1ccc2nc(C)cc(C(=O)N3C[C@H]4CCC[C@@]4(CO)C3)c2c1
8. CCc1cnc2c(c1Nc1cccc(OC)c1)c(=O)n(C)c(=O)n2C

[-12.4, -10.3, 3.16, -43.6, -4.13, 4.87, -2.37, 12.6]

List reported cytotoxicity at 10 µM for each of these molecules:
1. CC(C)CS(=O)(=O)N1C[C@@H]2C[C@H](C(=O)N(C)C)[C@H](C1)O2
2. CCS(=O)(=O)CCSc1cccc(C#N)c1
3. CCc1nnc2n1CCN(CCC(=O)Nc1cc(C)on1)C2
4. CCOC(=O)c1ccc(CNC(=O)c2ccon2)o1
5. CCc1c(C(=O)NC2CCS(=O)(=O)C2)cnn1-c1ccc(C)cc1 (centres undefined)
6. Cc1cnn(C2CCCN(C(=O)c3ccc(N(C)C)nn3)C2)c1 (centres undefined)
7. O=C(NCC1CC1)Nc1cnc2ccc(F)cc2c1O

1: 8.66; 2: -3.24; 3: 4.23; 4: 8.64; 5: -5.94; 6: -5.36; 7: -8.58

###

- test-description: Toxicity liver stage against HepG2, at 10uM
- Assay type: cell-based
- Parameters: test concentration 10 uM, cell line HepG2-A16-CD81EGFP
- measurement-parameters: human, HepG2-A16-CD81EGFP cells; read-out: INHIBITION
property-name: cytotoxicity at 10 µM (%)
One number for each entry, in %.

List reported cytotoxicity at 10 µM for each of these molecules:
1. c1cc(-c2nc(CN3CCc4c(ncn4C4CC4)C3)cs2)cs1
2. COCCN1CCN(C(C(=O)O)c2ccc(SC)cc2)CC1 (centres undefined)
3. Cn1cnc(S(=O)(=O)N2CC3(CCN(Cc4ccncc4)C3)C2)c1

-4.25
1.75
-113

List reported cytotoxicity at 10 µM for each of these molecules:
1. COCCN1CC2(CCCN(c3ncc(Cl)cc3F)C2)CCC1=O (centres undefined)
2. CC(C)c1noc(Cn2ncn3cccc3c2=O)n1
3. CN(Cc1ccc2nonc2c1)C(=O)c1ccc(C2CCCO2)s1 (centres undefined)
4. COc1cc(NC(=O)c2ccc(C)cc2C)c(C(=O)N(C)C)cc1OC
5. COc1ccccc1C1SCC(=O)Nc2n[nH]cc21 (centres undefined)
6. CC(=O)Nc1nc(-c2ccc(F)cc2)c[nH]1
7. CC(Oc1ccccc1C(F)(F)F)C(=O)NCC(N)=O (centres undefined)

21.8
-4.1
12.1
-0.414
-1.84
2.41
-8.38

List reported cytotoxicity at 10 µM for each of these molecules:
1. CCn1cc(CN2CCC(O)(Cn3nc(C)ccc3=O)CC2)cn1
2. CCN1CCc2c(sc3c2C(=O)NC(C=Cc2ccco2)N3)C1 (centres undefined)
3. CCOC1CCN(CCc2nc(-c3cccc(Cl)c3)no2)CC1
4. CN1CCN(C(=O)[C@H]2C[C@@H]3CN(c4ncc(F)cn4)C[C@@H]3N2C)CC1
5. CC(=O)N1CCN(C(=O)Cn2ccc3c(Cl)cccc32)CC1
6. CCc1ccccc1C(=O)NS(=O)(=O)CCCC#N

1. -22.3
2. -1.07
3. -0.139
4. -136
5. -0.643
6. -5.83
